The origin of these recorded values is patent US5158948A.

Entries and their measured pKi follow.
# test system: D-1 receptor
# assay notes: D-1 antagonist activity in adenylate cyclase assay (antagonism of dopamine-induced increase in cAMP)
# measurement conditions: 10 μM dopamine; goldfish retina or rat striatum homogenate
Counter-ions that a name gives are not always drawn.
On this scale, pKi is minus log10 of a concentration expressed in M (mol/L).

Recorded pKi, per entry:
| compound | pKi |
| --- | --- |
| CN1CCc2cc(Br)c(O)cc2C2(CCOc3ccccc32)C1 (centres unmarked) [Example 137, hydrochloride] | 7.52 |
| COc1cc2c(cc1O)C1(CCCc3ccccc31)CNCC2 (centres unmarked) [Example 9, hydrochloride] | 5.56 |
| COc1cc2c(cc1O)C1(CCCc3ccccc31)CN(C)CC2 (centres unmarked) [Example 10, hydrochloride] | 7.22 |

Here is another compound to look at.
According to the records, this compound CN1CCc2cc(O)c(O)cc2C2(CCCc3ccccc32)C1 (centres unmarked) [Example 27, hydrobromide] displays pKi of 6.40

----------
# test system: dopamine D-1 receptor (Rattus norvegicus, UniProt P18901)
# Sequence (P18901 whole entry): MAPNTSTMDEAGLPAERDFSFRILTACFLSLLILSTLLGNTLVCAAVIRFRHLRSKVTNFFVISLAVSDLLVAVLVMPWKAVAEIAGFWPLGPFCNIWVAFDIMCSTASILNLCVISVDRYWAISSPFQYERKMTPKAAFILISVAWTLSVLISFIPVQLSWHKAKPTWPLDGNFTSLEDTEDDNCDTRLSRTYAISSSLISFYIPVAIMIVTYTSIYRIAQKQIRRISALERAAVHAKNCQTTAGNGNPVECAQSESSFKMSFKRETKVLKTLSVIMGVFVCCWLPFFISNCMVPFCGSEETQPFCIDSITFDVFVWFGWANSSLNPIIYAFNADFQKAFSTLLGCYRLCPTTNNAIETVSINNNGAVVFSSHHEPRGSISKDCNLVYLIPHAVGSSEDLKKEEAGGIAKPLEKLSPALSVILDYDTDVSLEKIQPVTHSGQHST
# assay notes: D-1 receptor binding assay, competition with [^125 I]SCH-23982 in homogenized rat caudate
Where a name gives a salt, the structure may show the parent alone.
Ki by entry:
Output should be the measured figure followed by the unit it is expressed in.

Take a look at these entries with their results.
| compound | test system | metric name | reported value |
| --- | --- | --- | --- |
| CN1CCc2cc([N+](=O)[O-])c(O)cc2C2(CCc3ccccc32)C1 (centres unmarked) [Example 21, hydrochloride] | dopamine D-1 receptor (Rattus norvegicus, UniProt P18901) | Ki | 1.32 µM |
| COc1cc2c(cc1O)C1(CCc3ccccc31)CN(C)CC2 (centres unmarked) [Example 25, hydrochloride] | dopamine D-1 receptor (Rattus norvegicus, UniProt P18901) | Ki | 0.16 µM |
| COc1cc2c(cc1O)C1(CCCCc3ccccc31)CN(C)CC2 (centres unmarked) [Example 32, hydrochloride] | dopamine D-1 receptor (Rattus norvegicus, UniProt P18901) | Ki | 1.5 µM |

// recorded Ki for CN1CCc2cc(Br)c(O)cc2C2(CCCCc3ccccc32)C1 (centres unmarked) [Example 35, hydrochloride] : 0.94 µM

response.value for COc1cc2c(cc1O)C1(CCCc3ccccc31)CNCC2 (centres unmarked) [Example 9, hydrochloride] (field: Ki) = 2.61 µM

The compound identified as CN1CCc2cc(Br)c(O)cc2C2(CCOc3ccccc32)C1 (centres unmarked) [Example 137, hydrochloride] registered its Ki at 0.02 µM

Per the record, CN1CCc2cc(Br)c(O)cc2C2(CCCc3ccccc32)C1 (centres unmarked) [Example 31, hydrochloride] has Ki of 0.03 µM

For record Oc1ccc2c(c1)C1(CCCc3ccccc31)CNCC2 (centres unmarked) [Example 28, hydrochloride] the listed Ki is 23 µM

Kindly note the recorded Ki for COc1cc2c(cc1O)C1(CCc3ccccc31)CNCC2 (centres unmarked) [Example 24, hydrochloride] , which is 0.81 µM

Noted for CN1CCc2cc(Br)c(O)cc2C2(CCc3ccccc32)C1 (centres unmarked) [Example 18, hydrochloride] : its Ki reads 0.01 µM

For reference, reported Ki for COc1cc2c(cc1O)C1(CCOc3ccccc31)CN(C)CC2 (centres unmarked) [Example 135, hydrochloride] stands at 0.16 µM

Entry under test: CN1CCc2ccc(O)cc2C2(CCCCc3ccccc32)C1 (centres unmarked) [Example 33, hydrochloride] . Its Ki was 3.41 µM

// sample COc1cc2c(cc1O)C1(CCCc3ccccc31)CN(C)CC2 (centres unmarked) [Example 10, hydrochloride] , its Ki was 0.05 µM

GET /value?item= Oc1ccc2c(c1)C1(CCc3ccccc31)CNCC2 (centres unmarked) [Example 13, hydrobromide] &field=Ki returns 15.9 µM

Ki reported for this compound Oc1cc2c(cc1Br)CCNCC21CCc2ccccc21 (centres unmarked) [Example 17, hydrochloride] : 0.31 µM

Note to self: Ki recorded for CN1CCc2cc(O)c(O)cc2C2(CCCc3ccccc32)C1 (centres unmarked) [Example 27, hydrobromide] was 0.84 µM

Noted for CSc1cc2c(cc1O)C1(CCCc3ccccc31)CN(C)CC2 (centres unmarked) [Example 11, hydrochloride] : its Ki reads 0.11 µM
